molecular target: T1, human PD-L1 (human, UniProt Q9NZQ7 19-290); experiment: flow cytometry on CHO cells stably expressing PD-L1
T1 construct: also called huPD-L1; CD274
T1 sequence (Q9NZQ7 19-290): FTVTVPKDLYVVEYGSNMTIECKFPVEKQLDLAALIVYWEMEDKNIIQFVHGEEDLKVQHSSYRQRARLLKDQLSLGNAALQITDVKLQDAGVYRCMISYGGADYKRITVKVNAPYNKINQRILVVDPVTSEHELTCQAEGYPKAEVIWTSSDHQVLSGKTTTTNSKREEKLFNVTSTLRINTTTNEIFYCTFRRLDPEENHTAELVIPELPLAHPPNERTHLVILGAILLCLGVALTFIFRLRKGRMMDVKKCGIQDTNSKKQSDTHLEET
ATTRIBUTE_MEASURED: MFI at 33.3 nM (MFI)
One number for each entry, in MFI.

# BINDER, UNIT_SPEC, MFI at 33.3 nM
measured = [
    ("CD80 E35D/D46V/M47L/V68M/L85Q/E88D IgV-Fc, GS(G4S)3 linker (Fc fusion, not shown: a dimerising Fc or GST) VIHVTKEVKEVATLSCGHNVSVEELAQTRIYWQKDKKMVLTMMSGVLNIWPEYKNRTIFDITNNLSIMILALRPSDEGTYECVVQKYDKDAFKREHLAEVTLSVKADGSGGGGSGGGGSGGGGS", "MFI", 22600),
    ("CD80 E35D/D46V/M47L/V68M/L85Q/E88D IgV-Fc, (EAAAK)3 linker (Fc fusion, not shown: a dimerising Fc or GST) VIHVTKEVKEVATLSCGHNVSVEELAQTRIYWQKDKKMVLTMMSGVLNIWPEYKNRTIFDITNNLSIMILALRPSDEGTYECVVQKYDKDAFKREHLAEVTLSVKADEAAAKEAAAKEAAAK", "MFI", 25500),
]

Quick one: give me MFI at 33.3 nM for each item below, same order please.
1. CD80 E35D/D46V/M47L/V68M/L85Q/E88D IgV-Fc, EAAAK linker (Fc fusion, not shown: a dimerising Fc or GST) VIHVTKEVKEVATLSCGHNVSVEELAQTRIYWQKDKKMVLTMMSGVLNIWPEYKNRTIFDITNNLSIMILALRPSDEGTYECVVQKYDKDAFKREHLAEVTLSVKADEAAAK
2. CD80 E35D/M47V/N48K/V68M/K89N IgV-Fc, EAAAK linker (Fc fusion, not shown: a dimerising Fc or GST) VIHVTKEVKEVATLSCGHNVSVEELAQTRIYWQKDKKMVLTMMSGDVKIWPEYKNRTIFDITNNLSIMILALRPSDEGTYECVVLKYENDAFKREHLAEVTLSVKADEAAAK
3. CD80 E35D/M47V/N48K/V68M/K89N IgV-Fc, GS(G4S)3 linker (Fc fusion, not shown: a dimerising Fc or GST) VIHVTKEVKEVATLSCGHNVSVEELAQTRIYWQKDKKMVLTMMSGDVKIWPEYKNRTIFDITNNLSIMILALRPSDEGTYECVVLKYENDAFKREHLAEVTLSVKADGSGGGGSGGGGSGGGGS

1: 24800; 2: 22900; 3: 24200

Source of measurements: patent US20210130436A1
